Molecular target: Peroxisome proliferator-activated receptor alpha (Mus musculus)
Sequence (P23204 whole entry): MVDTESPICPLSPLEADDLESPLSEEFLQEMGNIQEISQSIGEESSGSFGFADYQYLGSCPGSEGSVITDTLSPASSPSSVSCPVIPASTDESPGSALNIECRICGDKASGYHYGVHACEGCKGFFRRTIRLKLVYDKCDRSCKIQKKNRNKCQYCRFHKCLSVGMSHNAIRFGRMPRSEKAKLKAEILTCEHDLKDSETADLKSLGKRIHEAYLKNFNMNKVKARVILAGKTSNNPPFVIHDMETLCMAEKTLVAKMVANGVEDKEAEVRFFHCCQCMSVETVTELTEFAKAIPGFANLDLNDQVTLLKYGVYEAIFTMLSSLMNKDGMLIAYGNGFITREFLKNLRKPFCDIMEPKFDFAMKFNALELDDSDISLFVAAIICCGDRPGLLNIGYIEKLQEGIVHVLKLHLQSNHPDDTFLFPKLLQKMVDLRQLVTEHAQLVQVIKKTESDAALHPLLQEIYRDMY
Assay: Agonist activity against mouse Peroxisome proliferator activated receptor alpha
quantity name: pEC50
A value of pEC50 is the negative decimal logarithm of a concentration given in moles per litre.

Given the compound `CCCc1cc2c(C(F)(F)F)noc2c(CCC)c1OC(C)(C)C(=O)O` , what is its reported pEC50?
6.74

====

Target: Peroxisome proliferator-activated receptor alpha (Homo sapiens, UniProt Q07869)
Sequence (Q07869 whole entry): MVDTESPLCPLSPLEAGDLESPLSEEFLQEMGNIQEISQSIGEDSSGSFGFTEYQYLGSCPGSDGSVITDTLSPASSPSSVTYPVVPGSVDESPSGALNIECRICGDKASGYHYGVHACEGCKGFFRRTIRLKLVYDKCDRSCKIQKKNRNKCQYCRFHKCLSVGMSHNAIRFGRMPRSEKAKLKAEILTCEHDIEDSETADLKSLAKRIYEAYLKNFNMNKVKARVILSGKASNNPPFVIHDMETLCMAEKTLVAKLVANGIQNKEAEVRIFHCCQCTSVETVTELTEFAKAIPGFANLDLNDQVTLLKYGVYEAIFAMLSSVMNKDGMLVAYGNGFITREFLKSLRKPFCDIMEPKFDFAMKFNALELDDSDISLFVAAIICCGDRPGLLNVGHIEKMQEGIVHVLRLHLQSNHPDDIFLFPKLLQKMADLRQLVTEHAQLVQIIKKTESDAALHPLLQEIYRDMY
Experiment: Effective concentration against human Peroxisome proliferator activated receptor alpha in Gal4 transactivation assay
quantity name: log10(EC50) (log10 of the value in µM)
Hello, just confirming the data are log10 of EC50 with units of µM.

I'm curious: which log10(EC50) was measured for `CCCc1cc(C(=O)CC)cc(CCC)c1OC(C)(C)C(=O)O` tested on Peroxisome proliferator-activated receptor alpha (Homo sapiens, UniProt Q07869)?
-2.00

I'm curious: which log10(EC50) was measured for CCCc1cc2c(C(F)(F)F)noc2c(CCC)c1OC(C)(CC)C(=O)O (stereo unspecified) tested on Peroxisome proliferator-activated receptor alpha (Homo sapiens, UniProt Q07869)?
-0.12

I'm curious: which log10(EC50) was measured for `CCCc1cc2c(OC)noc2c(CCC)c1OC(C)(C)C(=O)O` tested on Peroxisome proliferator-activated receptor alpha (Homo sapiens, UniProt Q07869)?
-1.22

New cases:
I'm curious: which log10(EC50) was measured for `CCCc1cc2c(C(F)(F)F)noc2c(CCC)c1OC(C)(C)C(=O)O` tested on Peroxisome proliferator-activated receptor alpha (Homo sapiens, UniProt Q07869)?
-0.52

I'm curious: which log10(EC50) was measured for `CC(C)(Oc1ccc(C(=O)c2ccc(Cl)cc2)cc1)C(=O)O` tested on Peroxisome proliferator-activated receptor alpha (Homo sapiens, UniProt Q07869)?
1.18

I'm curious: which log10(EC50) was measured for CCCc1cc2c(C(F)(F)F)noc2c(CCC)c1OC(C)C(=O)O (stereo unspecified) tested on Peroxisome proliferator-activated receptor alpha (Homo sapiens, UniProt Q07869)?
-0.21

Origin of the recorded values: ChEMBL document CHEMBL1143558
